Attribution: paper PMC9230870

tested on: HeLa; assay: MTT cytotoxicity assay, HeLa; format: cell-based; conditions: 72 h, mean ± SD (n = 3)
The reader will find reported pIC50 values listed item by item below.
Scale explanation: pIC50 corresponds to minus log10 of a concentration expressed in moles per litre.

>  <molecule>
CC[C@@]1(O)C(=O)OCc2c1cc1n(c2=O)Cc2c-1nc1cc3c(cc1c2-c1ccc(C)c(F)c1)OCO3

>  <pIC50>
7.66

$$$$
>  <molecule>
CC[C@@]1(O)C(=O)OCc2c1cc1n(c2=O)Cc2c-1nc1cc3c(cc1c2-c1ccc(F)c(C)c1)OCO3

>  <pIC50>
7.44

$$$$

QUERY: Would you mind telling me what pIC50 value was observed for CC[C@@]1(O)C(=O)OCc2c1cc1n(c2=O)Cc2cc3cc4c(cc3nc2-1)OCO4 [FL118, 10,11-methylenedioxy-20(S)-CPT, reference compound] ?
RESULT: 7.40

---

tested on: A549; assay: MTT cytotoxicity assay, A549; type: cell-based; conditions: 72 h, mean ± SD (n = 3)
assay_metric: pIC50
Scale explanation: pIC50 corresponds to minus log10 of a concentration expressed in moles per litre.

>  <molecule>
CC[C@@]1(O)C(=O)OCc2c1cc1n(c2=O)Cc2cc3cc4c(cc3nc2-1)OCO4 [FL118, 10,11-methylenedioxy-20(S)-CPT, reference compound]

>  <readout_number>
7.37

$$$$
>  <molecule>
CC[C@@]1(O)C(=O)OCc2c1cc1n(c2=O)Cc2c-1nc1cc3c(cc1c2-c1ccc(C)c(F)c1)OCO3 [FL77-28]

>  <readout_number>
7.32

$$$$

Next:
QUERY: Recorded pIC50 for CC[C@@]1(O)C(=O)OCc2c1cc1n(c2=O)Cc2c-1nc1cc3c(cc1c2-c1ccc(F)c(C)c1)OCO3 [FL77-29] with A549, please?
RESULT: 7.55
